Target: Neutrophil collagenase (Homo sapiens, UniProt P22894)
Sequence (P22894 whole entry): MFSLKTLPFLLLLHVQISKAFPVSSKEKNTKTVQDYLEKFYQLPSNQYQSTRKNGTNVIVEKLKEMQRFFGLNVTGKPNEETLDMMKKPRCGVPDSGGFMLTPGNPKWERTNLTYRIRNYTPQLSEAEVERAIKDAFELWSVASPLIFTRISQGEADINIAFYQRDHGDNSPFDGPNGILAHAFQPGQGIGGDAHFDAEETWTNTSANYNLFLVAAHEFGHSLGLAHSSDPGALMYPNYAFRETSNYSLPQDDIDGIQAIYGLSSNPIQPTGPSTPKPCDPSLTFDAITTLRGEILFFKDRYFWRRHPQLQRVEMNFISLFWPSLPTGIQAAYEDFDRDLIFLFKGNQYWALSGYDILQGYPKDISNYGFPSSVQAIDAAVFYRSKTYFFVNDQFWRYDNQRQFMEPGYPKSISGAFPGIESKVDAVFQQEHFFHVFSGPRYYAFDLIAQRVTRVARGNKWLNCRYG
Assay: Binding affinity for human Matrix metalloprotease-8
endpoint: IC50 (nM)
Numbers only, in nM.

query: Param request: IC50 | system Neutrophil collagenase (Homo sapiens, UniProt P22894) | item O=C(O)[C@H]1Cc2ccccc2CC1S(=O)(=O)c1ccc(-c2ccccc2)cc1 (stereo partly specified)
result: 10

Values from ChEMBL document CHEMBL1142054
